Test system: MOLT-4
Assay Name: NCI tumour cell line growth inhibition, 48 h
Calls of active or inactive are those of the source. No stated cut-off is given here; in the data, active = GI50 up to about 1.1 µM and inactive = higher.
Reply using exactly one outcome from True = active, False = inactive

Request: Field: outcome | Entry: CCC1(COC(NC(=O)c2ccccc2)(C(F)(F)F)C(F)(F)F)COC1
Response: False

Request: In this assay, the call recorded for COc1ccc2c(c1)C1=NCCN(C)c3ccc([N+](=O)[O-])c(c31)N2 was what?
Response: True

Request: Could you check what this test reported for CC(C)OC(=O)c1ccc(NCc2cc(O)ccc2O)cc1Cl ?
Response: True

Request: // param item: O=C1c2cccc([N+](=O)[O-])c2C(=O)N1c1ncn[nH]1 ; yields the recorded call
Response: False

Request: Recorded call for O=c1[nH]c(-c2ccc(-c3nc4cc([N+](=O)[O-])ccc4c(=O)[nH]3)cc2)nc2cc([N+](=O)[O-])ccc12 ?
Response: False

Request: Hey, what did the test say about CC(=O)Nc1ccc(-c2nc3ccccc3s2)cc1 ?
Response: False

Request: Outcome logged for Brc1ccc2c(c1)C1(c3cc(Br)ccc3-2)c2cc(Br)ccc2-c2ccc(Br)cc21 in this assay:
Response: False

Request: Per the records of this test, what outcome belongs to CC(C)(C)C1CCC2c3c([nH]c4ccccc34)C3C(=O)N(c4ccc(Br)cc4)C(=O)C3C2C1 (stereo not given) ?
Response: False

Request: Check the results log: what was the call for CCO/C=N/C1=C(C#N)SC2=N/C(=C\c3ccccc3)C(=O)N21 ?
Response: False

Request: Dear colleague, could you share the recorded outcome for CC(C)c1ccc(C2C3=C(N=C4SCC(=O)N42)C(=O)c2ccccc23)cc1 (stereo not given) when you have a moment?
Response: False

###

Tested on: SR
Assay Name: NCI tumour cell line growth inhibition, 48 h
Active and inactive are the calls of the source. Rule as the data show it: active = GI50 up to about 1.1 µM and inactive = higher.
Measured Property: GI50

Request: Returns the measured GI50 for the input molecule. Input: CN(C)CCCSc1nc2ccccc2[nH]1
Response: > 100 µM (inactive)

Request: GET /values?readout=GI50&item= NC(=S)N/N=C1\CCc2ccccc2C1
Response: > 100 µM (inactive)

Request: Dear colleague, I am looking for the recorded GI50 of the following molecule: Cc1cc(S(=O)(=O)Nc2nnc3c4ccccc4cnn23)c(S)cc1Cl
Response: > 100 µM (inactive)

Request: # input molecule: CC(CCCCNC(=O)OC(C)(C)C)NC(=O)NC(C)CCCCNC(=O)OC(C)(C)C (stereo not given) ; wanted: its GI50
Response: 99.8 µM (inactive)

Request: Tell me the measured GI50 of Cc1c(-c2ccc(O)cc2)n(CCCCCCNCCOC(=O)NCCCc2ccc(N(CCCl)CCCl)cc2)c2ccc(O)cc12 , please.
Response: 0.809 µM (active)

Request: I am curious: what GI50 value has been reported for COc1cc(/C=N/Nc2nnc3c4ccccc4c4ncccc4c3n2)cc(OC)c1OC ?
Response: 3.37 µM (inactive)

Request: Dear colleague, I am looking for the recorded GI50 of the following molecule: O=[N+]([O-])c1ccc2nc3ccc([N+](=O)[O-])cn3c2c1
Response: > 100 µM (inactive)

Request: Entry Cn1c(=O)c2c(nc3n2CCC(=O)N3CCCCl)n(C)c1=O has what GI50?
Response: > 100 µM (inactive)

Request: Quick one: GI50 for CN1/C(=C/C=C/C=C/C=C2C(=O)c3ccccc3C2=O)C(C)(C)c2ccccc21 ?
Response: > 100 µM (inactive)

Request: For the molecule shown here, O=C1c2ccccc2/C=C\C(c2ccccc2)=N/N1c1ccccc1Cl , give the reported GI50.
Response: > 10 µM (inactive)

###

System: MDA-MB-231
Assay Name: NCI tumour cell line growth inhibition, 48 h
Calls of active or inactive are those of the source. Cut-off read from the data, not from the text of the source: active = GI50 up to about 1.1 µM and inactive = higher.
Valid outcomes are listed here; reply with one: Yes (active), No (inactive)

Request: Lab log entry: N#Cc1c2c(c(Nc3cccc(C(F)(F)F)c3)n3c1nc1ccccc13)CCC2 — outcome as called in the assay?
Response: No

Request: Hey, what did the test say about CC1=NN(c2nc(N)nc(COCc3nc(N)nc(N4N=C(C)CC4(C)C)n3)n2)C(C)(C)C1 ?
Response: No

Request: Record request — test call for CCCNC(=O)CCC(C)[C@H]1CCC2C3C(C[C@H](OC(C)=O)[C@@]21C)[C@@]1(C)CCC2(C[C@H]1C[C@H]3OC(C)=O)OOC1(CCC(C)CC1)OO2 (stereo partly specified)
Response: No

Request: Entry Cc1cccc(Nc2nc(NNC(=O)Cc3ccccc3)nc(NNC(=O)c3ccncc3)n2)c1 : call = ?
Response: No

Request: Hey, what did the test say about CN1CC=C(c2cccn2C)CC1 ?
Response: No

Request: What was the test verdict on CN(C)N1C(=O)c2ccccc2NC1c1ccccc1 (stereo unspecified) ?
Response: No

Request: I'd appreciate the recorded outcome for Clc1nc(Nc2nc3ccccc3[nH]2)nc(Cl)c1Cc1ccccc1 from this test.
Response: No

Request: Entry CC(=O)c1cc2c(s1)C(=O)c1sccc1C2=O : call = ?
Response: Yes

Request: Check the results log: what was the call for O=C(CCc1ccccc1CO)NCCc1ccccc1 ?
Response: No

Request: Write down the call the test reported for this compound. Item: Cc1ccccc1NC(=O)O/N=C(\Cl)C(C)C
Response: No

Request: Would you mind telling me which call this test gave CC[C@@]1(O)C(=O)OCc2c1cc1n(c2=O)Cc2c-1nc1ccccc1c2/C=N\NC(=O)C[n+]1ccccc1 ?
Response: No

Request: Given CC(=O)NC1C(OC(C)C(=O)NC(C(=O)NC(CCC(=O)NCCCNC2c3ccccc3Nc3cccc([N+](=O)[O-])c32)C(N)=O)C(C)C)C(O)C(CO)OC1(C)OCc1ccccc1 (stereo unspecified) , state the outcome it received in this test.
Response: Yes

Request: Per the records of this test, what outcome belongs to O=C1C(C(O)(C(F)(F)F)C(F)(F)F)CCC1C(O)(C(F)(F)F)C(F)(F)F (stereo unspecified) ?
Response: Yes

Request: What is the recorded call for this compound in the test? COc1cc(OCc2nc3cc(C(F)(F)F)ccc3nc2-c2ccccc2)cc(OC)c1OC
Response: No

Request: Fill in: this test's call for C/C(=N/NC(N)=S)c1ccc[nH]1 is ___
Response: No

Request: Please let me know the test result on file for Cn1c(SCc2ccc([N+](=O)[O-])cc2)nnc1C12CC3CC(CC(C3)C1)C2 .
Response: No

Request: // param item: NC[C@H]1Nc2ccccc2[C@@H](O)C1O (stereo partly specified) ; yields the recorded call
Response: No

Request: Tell me the assay call for COC(=O)Nc1nc2cc(NS(=O)(=O)c3ccc(F)cc3)ccc2[nH]1 please.
Response: No

Request: Hi, do you know how COc1cccc(CCCNC(=O)Cc2ccccc2CO)c1 came out in this test?
Response: No

Request: Any idea what this test logged for C=C1OC(=O)[C@]2([C@@H](/C=C/C)C=CC(=O)[C@H]2O)[C@@H]1O ?
Response: No

Request: Each compound tested received a call. Report the one for O=C1c2cccc([N+](=O)[O-])c2C(=O)N1c1ncn[nH]1 .
Response: No

###

Test system: OVCAR-3
Assay Name: NCI tumour cell line growth inhibition, 48 h
The source made the active and inactive calls. Cut-off read from the data, not from the text of the source: active = GI50 up to about 1.1 µM and inactive = higher.
Please provide measured GI50 for the entries that follow.

Request: Query the reported GI50 for OVCAR-3; item: C=C1c2[nH]c3c([N+](=O)[O-])c(OC)ccc3c2CCN1C(C)=O
Response: > 100 µM (inactive)

Request: Look up GI50 with OVCAR-3 for this molecule: CCCCc1c2c(nc3c1CCc1cc4cc5c(nc4nc1-3)-c1nc3c(c(CCCC)c1CC5)CCCC3)CCCC2
Response: > 10 µM (inactive)

Request: Could you share what GI50 was measured for C/C(CN1C(=O)c2ccccc2C1=O)=N\NS(C)(=O)=O , tested on OVCAR-3?
Response: > 100 µM (inactive)

Request: # get_value(readout= GI50, system= OVCAR-3) for O=C(c1ccccc1)N1C(=S)N(c2ccccn2)C(=N/c2ccccc2)/C1=N\c1ccccc1
Response: 18.2 µM (inactive)

Request: Checklist item: GI50 tested on OVCAR-3, entry N#Cc1cccc2c1Nc1ccccc1S2 , value?
Response: > 100 µM (inactive)

Request: Find the measured GI50: item C=C1OC(=O)[C@]2([C@@H](/C=C/C)C=CC(=O)[C@H]2O)[C@@H]1O , target or system OVCAR-3.
Response: > 100 µM (inactive)

Request: Enter reported GI50 observed with OVCAR-3 for O=C(CCc1ccccc1CO)NCCc1ccccc1
Response: > 100 µM (inactive)

Request: Notebook entry, OVCAR-3 assay: GI50 of C=C1CC2OC(=O)C(=C)C2C(O)C2C(=C)CCC12 (stereo not given) = ?
Response: 10.1 µM (inactive)

Request: # value lookup — system OVCAR-3, readout GI50, item O=C(OCc1ccccc1)N1N=NC2C1C1CC(OCc3ccccc3)(OCc3ccccc3)C2O1 (stereo not given)
Response: > 100 µM (inactive)

Request: What value of GI50 on OVCAR-3 does COC1=CC(=O)C2C(C1=O)C(c1ccc(Cl)cc1)[C@@H]2C (stereo not given in full) have?
Response: 34.6 µM (inactive)
